# Assayed Target: prostate-specific membrane antigen (PSMA)
# Protocol Details: competition with [68Ga]-PSMA-617 (0.4 nM) on LNCaP cells, 60 min on ice
pIC50: −log10 of the molar value.
Measured Endpoint: pIC50

PSMARuc-16: DOTAGA-D-Lys(Ruc-SS)-D-Asp-D-Asp-β-Ala-TXA-L-Nal-D-Lys-EuE (peptide); 9.09

1. PSMARuc-9: DOTAGA-D-Lys(Ruc-SS)-D-Asp-β-Ala-TXA-L-Nal-KuE (peptide)
2. PSMARuc-17: DOTAGA-D-Lys(Ruc-SS)-D-Asp-D-Asp-D-Tyr-D-Phe-D-Phe-Ahx-D-Lys-EuE (peptide)
// compare measured pIC50, left 1 , right 2 , return larger Your choice should be expressed through its label.
2

From: patent EP4389150A1
